Each recorded value in this set is attributed to patent US10725057B2.

What racemization half-life in human serum was measured for each of the following?
Assay: Racemization half-life in human serum (37° C.)
Details: human, serum
Report as a plain number; the unit h is understood.

Please fill in: racemization half-life in human serum reported for O=C1CC[C@@H](N2C(=O)c3ccccc3C2=O)C(=O)N1 [(R)-TD, R-thalidomide] = 0.548

Please fill in: racemization half-life in human serum reported for O=C1CC[C@H](N2C(=O)c3ccccc3C2=O)C(=O)N1 [(S)-TD, S-thalidomide] = 0.363

Please fill in: racemization half-life in human serum reported for Nc1cccc2c1CN([C@@H]1CCC(=O)NC1=O)C2=O (single isomer, unassigned) [(R*)-LL] = 1.82

Please fill in: racemization half-life in human serum reported for Nc1cccc2c1CN([C@H]1CCC(=O)NC1=O)C2=O (single isomer, unassigned) [(S*)-LL] = 2.18
